- targetSystem: NEDD8-activating enzyme (NAE) (Homo sapiens, UniProt Q8TBC4)
- Construct: recombinant human NAE (APPBP1/UBA3 heterodimer); with APPBP1 (NAE1)
- Sequence (Q8TBC4 2-463): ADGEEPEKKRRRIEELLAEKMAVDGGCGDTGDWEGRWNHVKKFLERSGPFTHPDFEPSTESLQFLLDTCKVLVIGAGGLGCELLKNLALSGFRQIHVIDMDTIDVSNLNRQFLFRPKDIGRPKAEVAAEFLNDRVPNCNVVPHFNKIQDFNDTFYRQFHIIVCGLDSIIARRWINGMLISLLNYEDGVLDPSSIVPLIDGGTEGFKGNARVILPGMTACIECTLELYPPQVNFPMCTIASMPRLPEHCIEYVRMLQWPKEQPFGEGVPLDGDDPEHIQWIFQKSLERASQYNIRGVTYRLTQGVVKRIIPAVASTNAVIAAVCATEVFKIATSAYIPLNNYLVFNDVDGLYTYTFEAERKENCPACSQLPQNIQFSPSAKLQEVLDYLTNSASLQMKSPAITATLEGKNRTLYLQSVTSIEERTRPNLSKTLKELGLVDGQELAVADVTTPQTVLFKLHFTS
- Sequence (Q13564 2-534 partner): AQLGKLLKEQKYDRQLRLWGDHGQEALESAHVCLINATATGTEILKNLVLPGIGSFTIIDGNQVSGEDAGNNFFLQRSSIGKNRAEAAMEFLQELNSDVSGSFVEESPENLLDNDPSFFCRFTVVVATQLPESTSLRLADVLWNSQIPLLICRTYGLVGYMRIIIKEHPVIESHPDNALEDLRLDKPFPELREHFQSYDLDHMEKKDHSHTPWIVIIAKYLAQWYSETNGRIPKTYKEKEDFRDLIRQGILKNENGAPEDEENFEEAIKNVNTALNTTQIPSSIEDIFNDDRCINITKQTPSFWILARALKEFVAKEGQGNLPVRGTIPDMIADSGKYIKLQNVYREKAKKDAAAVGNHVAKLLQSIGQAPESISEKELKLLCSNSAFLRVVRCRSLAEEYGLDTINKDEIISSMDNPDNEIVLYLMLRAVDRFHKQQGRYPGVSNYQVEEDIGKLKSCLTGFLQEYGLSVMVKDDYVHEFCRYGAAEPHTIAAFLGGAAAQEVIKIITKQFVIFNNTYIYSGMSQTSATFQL
- protocolSummary: cell-free Ubc12-NEDD8 conjugation assay, western blot
measuredEndpoint: IC50

Please review the following examples before continuing.
### Prompt Data request, read-out IC50, for c1cc[c]2c(c1)-c1cccc[n+]1[Rh-3]213([c]2ccccc2-c2cccc[n+]21)[n+]1cccc2c4nc5ccccc5nc4c4ccc[n+]3c4c21 [compound 1, [Rh(ppy)2(dppz)]^+]
### Response ~1.5 µM

### Prompt Data request, read-out IC50, for Cc1cc2nc3c4ccc[n+]5c4c4c(ccc[n+]4[Rh-3]546([c]5cc(C=O)ccc5-c5cccc[n+]54)[c]4cc(C=O)ccc4-c4cccc[n+]46)c3nc2cc1C [compound 3, complex 3]
### Response ~6.25 µM

### Prompt Data request, read-out IC50, for O=Cc1ccc2[c](c1)[Rh-3]13([c]4cc(C=O)ccc4-c4cccc[n+]41)([n+]1ccccc1-2)[n+]1cccc2c4nc5ccc([N+](=O)[O-])cc5nc4c4ccc[n+]3c4c21 [compound 4, complex 4]
### Response ~13 µM

***
### Prompt Data request, read-out IC50, for Cc1cc2nc3c4ccc[n+]5c4c4c(ccc[n+]4[Rh-3]546([c]5ccccc5-c5cccc[n+]54)[c]4ccccc4-c4cccc[n+]46)c3nc2cc1C [compound 2, complex 2]
### Response ~6.25 µM
